Tested on: Human immunodeficiency virus 1
Assay: In vitro antiviral activity against HIV-1 in human PBM cells.
Format: functional, organism-based
Settings: Human immunodeficiency virus 1, PBMC
pEC50: −log10 of the molar value.
Field: pEC50. Provide a value for each of the compounds that follow.

Query: What pEC50 value was documented for this compound, `O=c1[nH]c(=O)n([C@@H]2C=C(CO)[C@@H](O)[C@H]2O)cc1F` ?
Result: 4.03

Query: Lookup `Nc1nc(O)c2ncn([C@H]3C=C(CO)[C@H](O)[C@@H]3O)c2n1`
Result: < 4.00

Query: Lookup `Nc1nc(O)c2ncn([C@@H]3C=C(CO)[C@@H](O)[C@H]3O)c2n1`
Result: < 4.00

# batch size: 2; output pEC50 per entry
1. Nc1nc(=O)n([C@H]2C=C(CO)[C@H](O)[C@@H]2O)cc1F
2. O=c1ccn([C@H]2C=C(CO)[C@H](O)[C@@H]2O)c(=O)[nH]1

Result:
1: < 4.00; 2: < 4.00

---

System: Human immunodeficiency virus 1
Test: In vitro antiviral activity against HIV-1 in human PBM cells.
Type: functional, organism-based
Conditions: Human immunodeficiency virus 1, PBMC
pEC50: −log10 of the molar value.
If the reported pEC50 equals or exceeds 7, assign criterion met. If not, assign criterion not met.

Query: Say whether `Cc1cn([C@H]2C=C(CO)[C@H](O)[C@@H]2O)c(=O)[nH]c1=O` shows pEC50 of 7 or more.
Result: criterion not met

Continuing:
Query: Say whether `O=c1[nH]c(=O)n([C@H]2C=C(CO)[C@H](O)[C@@H]2O)cc1F` shows pEC50 of 7 or more.
Result: criterion not met

Query: Lookup `Nc1ccn([C@H]2C=C(CO)[C@H](O)[C@@H]2O)c(=O)n1`
Result: criterion not met

Query: Lookup `Cc1cn([C@H]2C[C@H](N=[N+]=[N-])[C@@H](CO)O2)c(=O)[nH]c1=O`
Result: criterion met

Query: Lookup `OCC1=C[C@H](n2cnc3c(O)ncnc32)[C@@H](O)[C@H]1O`
Result: criterion not met

Query: Lookup `Nc1nc(=O)n([C@@H]2C=C(CO)[C@@H](O)[C@H]2O)cc1F`
Result: criterion not met

Query: Lookup `OCC1=C[C@@H](n2cnc3c(O)ncnc32)[C@H](O)[C@@H]1O`
Result: criterion not met

---

Field: EC50. Provide a value for each of the compounds that follow.
Tested on: Human immunodeficiency virus 1
Assay: In vitro antiviral activity against HIV-1 in human PBM cells.
Format: functional, organism-based
Settings: Human immunodeficiency virus 1, PBMC
Numbers only, in µM.

Query: What EC50 value was documented for this compound, Nc1ncnc2c1ncn2[C@@H]1C=C(CO)[C@@H](O)[C@H]1O [NEOPLANOCIN A] ?
Result: 0.1

The record that follows has no EC50 shown yet.
Query: What EC50 value was documented for this compound, `Nc1ccn([C@@H]2C=C(CO)[C@@H](O)[C@H]2O)c(=O)n1` ?
Result: 0.06

---

Field: EC50. Provide a value for each of the molecules that follow.
Test system: Human immunodeficiency virus 1
Experiment: In vitro antiviral activity against HIV-1 in human PBM cells.
Type: functional, organism-based
Details: Human immunodeficiency virus 1, PBMC

Query: What EC50 value was documented for this molecule, `O=c1ccn([C@@H]2C=C(CO)[C@@H](O)[C@H]2O)c(=O)[nH]1` ?
Result: > 100 µM

# batch size: 2; output EC50 per entry
1. Nc1ncnc2c1ncn2[C@H]1C=C(CO)[C@H](O)[C@@H]1O
2. Cc1cn([C@@H]2C=C(CO)[C@@H](O)[C@H]2O)c(=O)[nH]c1=O

Result:
1. > 100 µM
2. > 100 µM
